# Test system: MS2 coat protein
# protocol: apparent KD of MS2 coat protein; designed switch direction (-1 OFF switch, 1 ON switch): 1; higher = weaker reporter binding
# setup-conditions: Eterna round: R95; input ligand: none
We use 90 nM as the dividing line for apparent KD of MS2 coat protein: on or above the line is yes, below is no.

Please check the record GGAGCCUGCACUGAGGAUAUUCAUAGUGUAACAUGAGGAUCACCCAUGUAGGCCCUGAGGCCUUGGGAGAAGGCAGUGCGGCUCG [JL-ss2-3.05 ViennaUCT mod] (puzzle: Same State 2) and state if its apparent KD of MS2 coat protein is at or above 90 nM. yes

Test whether the sequence UGUCCAGCCUGUGCUGGUCUUUUGCAUGUACAUGAGGAUCACCCAUGUCGUGUUCAUGCUUUUUGCUCGUCUUUAAA [Photon Torp-02] (puzzle: Sensor for hsa-mir-208a) records apparent KD of MS2 coat protein of 90 nM or higher. no

Decide: is the reported value of apparent KD of MS2 coat protein for GGUCCAGCCUGAGCUGGACUACAGCAUGUACAUGAGGAUCACCCAUGUCAUGUACAUGCUUUUUGUUUGUCUUAAAA [Sensorship 10 - Jieux - Sensor for hsa-mir-208a] (puzzle: Sensor for hsa-mir-208a) equal to or greater than 90 nM? no

Does GCGCAGCUGGGUGAGGAUAUCGGUGGUAAAACAUGAGGAUCACCCAUGUCCGAAGCUCGGACUUCCGAGAAGGCGCCCGGCUGCA [Ridigea] (puzzle: Same State 2) have a reported apparent KD of MS2 coat protein of at least 90 nM? yes

Textbook exercise: given the entry GGUUUAGUCAGGUACAGUUGCACCUGAAAACAUGAGGAUCACCCAUGUUUGGGACAAGCUUUGCUCCUCGUCUUGCC [Ralausen] (puzzle: Sensor for hsa-mir-208a) , state whether its apparent KD of MS2 coat protein is greater than or equal to 90 nM. yes

Does GGAGAGAGAGCACAGGAUAUGAGAGGAGAGACAUGAGGAUCACCCAUGUAAGAGAGAGAGGAGAGUUAGAAGGGUGAGAGAGAGG [Altered State 2-20 - Jieux - Same State 2] (puzzle: Same State 2) have a reported apparent KD of MS2 coat protein of at least 90 nM? yes

Exam item: decide whether the reported apparent KD of MS2 coat protein for AACAUUCUAUCUCAGGAUAUCAUGUCAAAGACAUGAGGAUCACCCAUGUACCAGGAAACUGGUUAUGAGAAGGGAGAUAGAAUGG [Mat - Same State 2 - Mod - D48] (puzzle: Same State 2) is at least 90 nM. yes

State whether the measured apparent KD of MS2 coat protein reaches 90 nM, counting equality as reaching it, for CAAAAUUAGUAGGAUAGGUACCCAGGAUGACAUGAGGAUCACCCAUGUAAGAGCUUUUUGCUCGUCAUUAACAGUUG [JR_SHM208a_Sub016] (puzzle: Sensor for hsa-mir-208a) no

====

# System: MS2 coat protein
# protocol: apparent KD of MS2 coat protein; designed switch direction (-1 OFF switch, 1 ON switch): -1; higher = weaker reporter binding
# setup-conditions: Eterna round: R95; input ligand: none
Could you please report measured apparent KD of MS2 coat protein for the items listed next?
Numbers only, in µM.

Use these answered entries as a reference point.
- ordered-residues: "AAGUACCGUCACGAUAGUGAUGGUACAACAAGCAUGUAAACAUGAGGAUCACCCAUGUCCUCAAAUGCUCGUCUUAU [Sensor 3 - 65] (puzzle: Sensor v3, turn-off variant 2)"
  study-target: "MS2 coat protein"
  reading: 0.689
- ordered-residues: "UUUUUCAGGCCAGAUCCUCACAUGAGGAUCACCCAUGUGCUCGUCUGUUUUCGCUCUUUCUUUUUUUUGUUUGUGCU [Level Boss var2-19] (puzzle: Sensor v3, turn-off variant 1)"
  study-target: "MS2 coat protein"
  reading: 0.312

Pending sequence:
If you can, please state the reported apparent KD of MS2 coat protein value of GCCAGAGCAGGAUAUUUAUAUUAUCACAUGAGGAUCACCCAUGUCCAGCGAAAGCUGGAGGGAGAAGGGCUCUGGC [Fiskers Ex 5 - 25] (puzzle: Exclusion 5) . 0.25

====

# Test system: K4 kissing-loop RNA reporter;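 further: bound reporter read as fluorescence of individual clusters on recovered sequencing chips by microscopy, with normalized cluster intensities fitted with a binding model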
# protocol: apparent KD of K4 kissing-loop reporter; higher = weaker reporter binding
# setup-conditions: Eterna round: R107; input ligand: theophylline 20 uM
assay-metric: apparent KD of K4 kissing-loop reporter

- ordered-residues: "AUUUUGGUUUAGAGUGAUGUUCCUUGUAUUCGAGGACCGGUACGGCCGCCACUCGAAUAGAAAAGAAAAGAAAUGUUUGAUUUUU [BDazzled - #7 SS Tryptophan A]"
  assay-metric: "apparent KD of K4 kissing-loop reporter"
  reading: "351 nM"

For every record below, what is its apparent KD of K4 kissing-loop reporter?
1. UUCGAUCAGUGAUGUUGAUCAAUAGUCGAAGGAGCGCUAUAGAUAGCAGGUAGGUCGCGGCUACAGGGUGUUAAGACACCCAGAA [#13 K4 Arginine A Same State]
2. AUCGAUAUCAGAGGAUAUGCUUAAUAGAUUUAUUAUUAUCUAUUAUGCAGUGAUGUUGCAUAUUUUGCAGAAGGCUGAUUUCGAA [JR_SSFMNB_Sub019]

["477 nM", "429 nM"]

Hi! Can you tell me apparent KD of K4 kissing-loop reporter for each of these sequences?
1. AGAACUGUCUUGGAUACCAGUGAUGUUGGUAUCGAUGUGUGAGUGCAAAGCGUCCCACAUUGCCCUUGGCAGCUAAGACUGUUCA [Omei KL Theo B Exc A v3]
2. CAUAUACAAGUGAUGUUUGUACUAACCGAAGGAGCGUCGUUGAAGACAGGUAGGUCGCGGUUUAAGUUAGAUUAUAUAAUUCCAC [JR_Nu_SSArginiA_Sub027]
3. CGCGCGCGUUGAGAGGCGCGCGCGAAUGAUACCAGUAUAUAAGAAUACCCUUGGCAGCAUAAGAAAGAUAUAGUGAUGUUGUAUA [SSTheophA.E]
4. AAUAAAAUCACGGCCGCCACUGAUGCUAAUAUUAGCAGUGAUGUUGCUAUGUAUAUUUUAUUUAACAGGACCGGGUGAAUAUUUA [JR_ExcTryptoB_Sub014]
5. GAGUUUCGUAAAGGAUAUUCUAGCUAAAGCCAUUAGUGAUGUUGAUGUACGGACGGAAGCCUGGCAGAAGAAGGUUAACAGGAUU [theeternabot_sameState_KL_FMN_B_24]
6. ACUCUUGCGUAUGAUACCAGCUUGUACCGCCACAUAUAUUCUAAGAGUUGAGUGAUGUUUAGCCCUUGGCAGCAUACUUGUGCGU [theeternabot_exclusion_KL_Theo_B_42]
7. CUCGUGGGUUUGGGAGGGCUUGUGGGAAGAUAGGAUAUCUAGGGAGGGAGAAGGAUCUAUAGAAUAUAGUGAUGUUAUAUAUGGG [SSFMNA.aA]

["179 nM", "715 nM", "466 nM", "212 nM", "420 nM", "606 nM", "230 nM"]

====

# System: MS2 coat protein
# protocol: apparent KD of MS2 coat protein; designed switch direction (-1 OFF switch, 1 ON switch): -1; higher = weaker reporter binding
# setup-conditions: input ligand: FMN 200 uM
assay-metric: apparent KD of MS2 coat protein (µM)
Answers are plain numbers, in µM.

- ordered-residues: "AGUCCUGGAGUUAGGAUAUGGUGUAUCGCUGCGCUUCAGAAGGGACUUGAGGAUCACCCAAGUAGCCGUGAGGG [salish99_bmod_ex4_r4_007] (Eterna round: R97, puzzle: Brourd's mod of Exclusion 4)"
  study-target: "MS2 coat protein"
  apparent KD of MS2 coat protein [µM]: 0.0499
- ordered-residues: "UAAUUAGACUCAGGAUAUUCGAAGAGAAGAGAGGAAGAAGGGAGGUGACAUGAGGAUCACCCAUGUAUGUGUUGUGUCCAUGUG [Exclusion NG 1 S1] (Eterna round: R96, puzzle: Exclusion NG 1)"
  study-target: "MS2 coat protein"
  apparent KD of MS2 coat protein [µM]: 0.326
- ordered-residues: "UUGCGAAGAGGAUAUUUUGUCAUCAACAUGAGGAUCACCCAUGUCUUCCUUUAUGCUAUAGAAGAAGGCUUCCAGU [Eternabot (L2) Solution 63] (Eterna round: R97, puzzle: Exclusion 5)"
  study-target: "MS2 coat protein"
  apparent KD of MS2 coat protein [µM]: 0.0599
- ordered-residues: "CAUAGUUACACAGGAUAUAGUACAUGAGGAUCACCCAUGUAAUAAAUGAGAAUUUCGAAUGUAUACUAGAAGGGUGAAAUCUAC [Ostracism 54 - Jieux - Exclusion NG 2] (Eterna round: R96, puzzle: Exclusion NG 2)"
  study-target: "MS2 coat protein"
  apparent KD of MS2 coat protein [µM]: 0.206
- ordered-residues: "AGAGUGCUGCGAGGAUAUACAUGAGGAUCACCCAUGUAAAUGUGUGAGGCUUUGCCUCACACAAUGUAGAAGGCGCAGUACUCU [Mat - Exclusion NG 2 - Mod of JL - D1] (Eterna round: R96, puzzle: Exclusion NG 2)"
  study-target: "MS2 coat protein"
  apparent KD of MS2 coat protein [µM]: 0.0178
- ordered-residues: "UUCCUACAUGAGGAUCACCCAUGUCAGGAUAUAUAAAACGCUCAGAUAAAAGAGCAAGAUAGAAGGGAUUGGGA [Aquis] (Eterna round: R97, puzzle: Exclusion 1)"
  study-target: "MS2 coat protein"
  apparent KD of MS2 coat protein [µM]: 0.0145

For every record below, what is its apparent KD of MS2 coat protein?
1. AAUUAGCAAGCGAGGUCCCACAUGAGGAUCACCCAUGUGCUCGUCUUAUAAGGUACUGUGACGAGAGUCACGGUACC [Mat - Sensor, turn-off var - Eli Mod - D35] (Eterna round: R97, puzzle: Sensor, turn-off variant 1)
2. AGCUGUGGCCGAGGAUAUCACAUGAGGAUCACCCAUGUACAUGAUUAAGCCUGGUAACAGGCUCAUGAGAAGGCGGUCUCAGCA [Eli eng2 - 014] (Eterna round: R96, puzzle: Exclusion NG 2)
3. CUUUUGUGAGGAUAUUAGUAGUAAAUAAAUAAAAUUAUUACUGAGAAGGUACAUGAGGAUCACCCAUGUUCCUU [Salish 062 v21] (Eterna round: R97, puzzle: Exclusion 4)

0.0138
0.012
0.0128
